- measurement target: NDH-2 from S. aureus (SaNDH2, type 2 NADH:quinone oxidoreductase) (Staphylococcus aureus)
- Construct: gene SAOUHSC_00878; recombinant NDH-2
- Sequence (Q2FZV7 whole entry): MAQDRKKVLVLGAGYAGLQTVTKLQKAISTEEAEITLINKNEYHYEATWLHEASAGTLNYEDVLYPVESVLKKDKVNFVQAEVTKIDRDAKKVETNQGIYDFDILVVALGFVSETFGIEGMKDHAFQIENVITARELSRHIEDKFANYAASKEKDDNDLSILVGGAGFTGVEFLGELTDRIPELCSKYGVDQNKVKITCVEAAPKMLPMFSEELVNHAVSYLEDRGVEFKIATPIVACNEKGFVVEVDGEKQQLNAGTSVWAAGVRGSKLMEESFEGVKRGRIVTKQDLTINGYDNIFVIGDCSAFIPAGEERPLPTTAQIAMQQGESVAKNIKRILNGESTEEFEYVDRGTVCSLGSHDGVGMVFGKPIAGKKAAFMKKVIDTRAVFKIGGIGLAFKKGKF
- assay notes: steady-state NADH oxidation assay at […] nm with DMN as electron acceptor, […] enzyme
- Assay type: biochemical

{"columns": ["mol smiles", "Ki"],
 "data": [
  ["COc1ccc2nc(C)ccc2c1", "8.9 µM"]
]}
